Value source: patent US20070265189A1

IGF-1R/IR comparison listing for selected binders.
# System Under Test: T1, Soluble IGF-1R (sIGF-1R), R&D Systems Cat. # 391-GR/CF (UniProt P08069 31-935, limits assumed)
# T1 construct: extracellular domain
# Test Method Notes: phage ELISA
Answer field: number only, no words.

For the binder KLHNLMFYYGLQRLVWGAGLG [20E2B-4-H3-IGFR] , what IGF-1R/IR comparison is on record?
13.9

Would you mind doing RGQSDAFYSGLWALIGLSDG [R20β-4-A6-IR] as well?
17.3
